Listed next: entries and their corresponding pIC50.
experimental-system: rat mGlu5 (Rattus norvegicus)
Sequence (P31424 21-1203): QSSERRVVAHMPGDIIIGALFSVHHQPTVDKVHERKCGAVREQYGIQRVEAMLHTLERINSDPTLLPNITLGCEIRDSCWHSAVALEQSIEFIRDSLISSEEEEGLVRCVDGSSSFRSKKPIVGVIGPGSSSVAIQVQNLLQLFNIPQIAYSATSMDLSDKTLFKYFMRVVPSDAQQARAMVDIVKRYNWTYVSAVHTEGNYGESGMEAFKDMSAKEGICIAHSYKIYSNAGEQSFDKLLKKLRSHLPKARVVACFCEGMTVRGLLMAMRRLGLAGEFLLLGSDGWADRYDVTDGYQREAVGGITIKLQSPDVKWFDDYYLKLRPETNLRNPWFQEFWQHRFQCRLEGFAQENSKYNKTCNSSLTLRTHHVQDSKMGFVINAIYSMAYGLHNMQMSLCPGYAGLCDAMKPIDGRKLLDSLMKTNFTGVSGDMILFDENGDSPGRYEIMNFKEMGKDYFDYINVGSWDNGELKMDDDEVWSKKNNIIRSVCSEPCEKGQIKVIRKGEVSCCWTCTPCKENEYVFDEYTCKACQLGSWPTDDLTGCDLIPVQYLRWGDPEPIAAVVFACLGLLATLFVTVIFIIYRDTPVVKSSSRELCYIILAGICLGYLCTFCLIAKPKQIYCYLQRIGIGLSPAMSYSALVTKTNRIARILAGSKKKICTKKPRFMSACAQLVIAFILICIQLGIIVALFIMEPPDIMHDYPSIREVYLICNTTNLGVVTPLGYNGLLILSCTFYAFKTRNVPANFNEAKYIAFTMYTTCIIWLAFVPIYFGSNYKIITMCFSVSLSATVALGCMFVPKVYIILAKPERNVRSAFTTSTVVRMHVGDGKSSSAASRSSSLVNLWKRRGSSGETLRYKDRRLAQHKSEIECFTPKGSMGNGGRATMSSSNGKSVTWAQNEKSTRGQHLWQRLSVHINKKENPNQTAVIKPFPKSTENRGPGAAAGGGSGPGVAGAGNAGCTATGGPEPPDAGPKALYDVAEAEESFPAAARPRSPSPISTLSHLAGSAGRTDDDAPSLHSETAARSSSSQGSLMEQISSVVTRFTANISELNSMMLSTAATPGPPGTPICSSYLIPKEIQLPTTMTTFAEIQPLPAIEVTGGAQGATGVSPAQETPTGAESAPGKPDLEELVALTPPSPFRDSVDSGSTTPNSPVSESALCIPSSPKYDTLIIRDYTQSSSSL
protocol-notes: Calcium mobilization mGlu5 assay
study-conditions: read-out: mGlu5 IC50; HEK293A cells expressing rat mGlu5; EC80 glutamate
pIC50: −log10 of the molar value.

# count of solved cases: 2
INSERT INTO results (structure_string, parameter_measured, value) VALUES
  ('Cc1nsc(NC(=O)c2cccc(Oc3cccnc3)c2)n1', 'pIC50', '< 4.52'),
  ('O=C(Nc1ccncn1)c1cccc(Oc2cccnc2)c1', 'pIC50', '< 5.00');

Task: Hello, I am looking for reported pIC50 with rat mGlu5 (Rattus norvegicus) for "O=C(Nc1nc(C(F)(F)F)cs1)c1cccc(Oc2cccnc2)c1" . Could you help?
Result: < 4.52

src = paper PMC3846293
